system: SF-295; test: NCI tumour cell line growth inhibition, 48 h
Activity calls are given as the source filed them. Cut-off read from the data, not from the text of the source: active = GI50 up to about 1.1 µM and inactive = higher.
# GI50 values compiled below

>>> val("CC#CC#C/C=C1/O[C@]2(CCC(OC(C)=O)CO2)[C@@H]2O[C@H]12 (stereo not given in full)")
"35.4 µM (inactive)"
>>> val("COc1ccc2nccc(C3OC(=O)N4CCC(=O)CC34)c2c1 (stereo not given)")
"> 100 µM (inactive)"
>>> val("CCOc1ccc(NC(=O)C2=C(C)NC(C)=C(C(=O)Nc3ccc(OCC)cc3)C2c2ccccc2)cc1")
"> 100 µM (inactive)"
>>> val("COc1ccc(/C=C2\\OC(=O)C(Cl)=C2c2ccc(OC)cc2)cc1")
"> 100 µM (inactive)"

For the compound `CN(C)Cc1cc(C(=O)/C=C/c2ccc(/C=C/C(=O)c3cc(CN(C)C)c(O)c(CN(C)C)c3)cc2)cc(CN(C)C)c1O` , what GI50 is on record?
29.2 µM (inactive)

====

# GI50 values compiled below
test system: MDA-N; assay: NCI tumour cell line growth inhibition, 48 h
The source made the active and inactive calls. Rule as the data show it: active = GI50 up to about 1.1 µM and inactive = higher.

>>> val("COc1cc(S(=O)(=O)Nc2nc(-c3ccc(/N=C/c4cccs4)cc3)cs2)ccc1Cl")
"> 100 µM (inactive)"
>>> val("CC(=O)N1CCc2c([nH]c3ccc(Br)cc23)C1c1ccccc1 (centres undefined)")
"2.61 µM (inactive)"

For the molecule `COC(=O)[C@H](Cc1ccc(OC(C)(C)C)cc1)N[C@H](C)C(=O)N[C@@H](Cc1ccccc1)C(=O)OCc1ccccc1` , what GI50 is on record?
> 100 µM (inactive)

Next record, please: CCOC(=O)CCC(NC(=O)OCc1ccccc1)C(=O)NC(CCC(=O)OCC)C(=O)NNC(=O)OC(C)(C)C (centres undefined)
> 100 µM (inactive)

====

system: UO-31; assay: NCI tumour cell line growth inhibition, 48 h
The source made the active and inactive calls. Cut-off read from the data, not from the text of the source: active = GI50 up to about 1.1 µM and inactive = higher. Where a SMILES comes first, the peptide text is derived from it. The star is where a group is joined. Boc = CC(C)(C)OC(=O)*
# GI50 values compiled below

// worked examples, GI50 included
>>> val("CC(=O)Nc1ccccc1SCCSSCCSc1ccccc1NC(C)=O")
"17.8 µM (inactive)"
>>> val("COC(=O)C(Cc1c[nH]c2ccccc12)NC(=O)C(Cc1c[nH]c2ccccc12)NC(=O)C(Cc1c[nH]c2ccccc12)NC(=O)C(Cc1c[nH]c2ccccc12)NC(=O)C(Cc1c[nH]c2ccccc12)NC(=O)C(Cc1c[nH]c2ccccc12)NC(=O)C(Cc1c[nH]c2ccccc12)NC(=O)C(Cc1c[nH]c2ccccc12)NC(=O)OC(C)(C)C (stereo not given) (Boc-WWWWWWWW-OMe; configuration not given here)")
"53.7 µM (inactive)"
>>> val("O=C1C(Br)=C[C@H]2C3C=CC(Br)(C3=O)[C@@H]12 (stereo not given in full)")
"16.7 µM (inactive)"
>>> val("COc1ccc2c(c1)C=C(C(C)(C)C)NS2(=O)=O")
"> 100 µM (inactive)"
>>> val("O=c1c(C(c2ccc(O)cc2)c2c(O)oc3ccccc3c2=O)c(O)oc2ccccc12")
"> 100 µM (inactive)"
>>> val("Cc1ccc(S(=O)(=O)Oc2nc3ccccc3nc2OS(=O)(=O)c2ccc(C)cc2)cc1")
"> 100 µM (inactive)"

For the compound `CN(C)c1ccc(/N=N/c2ccc3[nH]cnc3c2)cc1` , what GI50 is on record?
28.4 µM (inactive)

Next record, please: `CCOC1=NC(C(F)(F)F)(C(F)(F)F)N=C(N2CCCCC2)O1`
> 100 µM (inactive)

Next record, please: `CN1CCN(c2ccc3nc(C4=C(O)C(=O)c5c(nc(CO)n5C)C4=O)[nH]c3n2)CC1`
> 100 µM (inactive)

Next record, please: `O=C1C=C(Nc2ccc(Br)cc2)c2ccccc2C1=O`
16 µM (inactive)

Next record, please: `O=C(Nn1cnn2c(=O)c3ccccc3nc2c1=O)c1ccccc1`
> 100 µM (inactive)

Next record, please: `O=C(O)CNC(=O)CO/N=C1/C(=C2/C(=O)Nc3ccccc32)Nc2ccccc21`
26.5 µM (inactive)
